The reported measurements were obtained from patent US20240132431A1.

# system-under-test: Bcl-2 protein (Recombinant Human Bcl-2 Protein) (Homo sapiens)
# Construct: purchased Novus NBP2-34889
# Sequence (P10415 whole entry): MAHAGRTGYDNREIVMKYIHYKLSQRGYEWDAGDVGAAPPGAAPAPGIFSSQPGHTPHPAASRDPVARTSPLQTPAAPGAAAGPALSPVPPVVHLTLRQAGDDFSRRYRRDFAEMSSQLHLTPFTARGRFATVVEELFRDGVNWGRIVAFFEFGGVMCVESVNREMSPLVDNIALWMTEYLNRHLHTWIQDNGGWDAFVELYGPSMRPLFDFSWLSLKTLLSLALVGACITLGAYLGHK
# assay-method-text: Binding evaluation of mixture library compounds to Bcl-2 using AS-MS (affinity selection mass spectrometry)
# experimental-setup: n = 2
In this section we review reported ASMS ratio (%) values for a set of compounds.
A number alone suffices; assume %.

Use the examples below as a reference point.
compound	system-under-test	ASMS ratio (%)
CCOc1cccc(-c2cc(CN3CCN(c4ccc(C(=O)NS(C)(=O)=O)cc4)CC3)cc(C(F)(F)F)c2)c1 [B2I061-01]	Bcl-2 protein (Recombinant Human Bcl-2 Protein) (Homo sapiens)	0.5
CCOc1cccc(-c2ccc(C(=O)N3CCN(c4ccc(C(=O)NS(=O)(=O)c5ccc(NCCSc6ccccc6)c(C(F)(F)F)c5)nn4)CC3)cc2C)c1 [B2R003-01]	Bcl-2 protein (Recombinant Human Bcl-2 Protein) (Homo sapiens)	0.0
CCOc1cncc(-c2cnn(-c3cc(C(=O)N4CCN(c5ccc(C(=O)NS(=O)(=O)c6ccc(NCCSc7ccccc7)c(C(F)(F)F)c6)nn5)CC4)cc(C(F)(F)F)c3)c2)c1 [B2R022-01]	Bcl-2 protein (Recombinant Human Bcl-2 Protein) (Homo sapiens)	15.8
CCOc1cccc(C#Cc2cncc(C(=O)N3CCN(c4ccc(C(=O)NS(=O)(=O)CCC(F)(F)F)nn4)CC3)c2)c1 [B2N009-01]	Bcl-2 protein (Recombinant Human Bcl-2 Protein) (Homo sapiens)	−0.4

Find the measured ASMS ratio (%) of CCOc1cncc(-c2cc(CN3CCN(c4ccc(C(=O)NS(=O)(=O)CCC(F)(F)F)nn4)CC3)cc(OC(F)(F)F)c2)c1 [B2N090-01] and report it.
0.0

Find the measured ASMS ratio (%) of CCOc1cccc(-c2cnn(-c3cc(C(=O)N4CCN(c5ccc(C(=O)NS(=O)(=O)C(C)(C)C)nn5)CC4)cc(C(F)(F)F)c3)c2)c1 [B2L021-01] and report it.
−14.9

Find the measured ASMS ratio (%) of CCOc1cncc(C#Cc2ccccc2C(=O)N2CCN(c3ccc(C(=O)NS(=O)(=O)CCC(F)(F)F)nn3)CC2)c1 [B2N008-01] and report it.
−0.4

Find the measured ASMS ratio (%) of CCOc1cncc(-c2csc(C(=O)N3CCN(c4ccc(C(=O)NS(=O)(=O)C(C)(C)C)cc4)CC3)c2)c1 [B2L024-01] and report it.
0.0

Find the measured ASMS ratio (%) of CCOc1cccc(-c2ccc(CN3CCN(c4ccc(C(=O)NS(C)(=O)=O)cc4)CC3)cc2C)c1 [B2I047-01] and report it.
1.4

Find the measured ASMS ratio (%) of CCOc1cncc(-c2ccc(C(=O)N3CCN(c4ccc(C(=O)NS(=O)(=O)c5ccc(NCCSc6ccccc6)c(C(F)(F)F)c5)nn4)CC3)cc2C)c1 [B2R004-01] and report it.
0.0

Find the measured ASMS ratio (%) of CCOc1cncc(-c2csc(C(=O)N3CCN(c4ccc(C(=O)NS(=O)(=O)CCC(F)(F)F)nn4)CC3)c2)c1 [B2N002-01] and report it.
0.0

Find the measured ASMS ratio (%) of CCOc1cncc(-c2ccc(C(=O)N3CCN(c4ccc(C(=O)NS(=O)(=O)C(C)(C)C)cc4)CC3)cc2C)c1 [B2L026-01] and report it.
0.0

Find the measured ASMS ratio (%) of CCOc1cncc(-c2cc(CN3CCN(c4ccc(C(=O)NS(C)(=O)=O)nn4)CC3)cc(C(F)(F)F)c2)c1 [B2I088-01] and report it.
0.0

Find the measured ASMS ratio (%) of CCOc1cncc(-c2ccc(CN3CCN(c4ccc(C(=O)NS(=O)(=O)c5ccc(NCCSc6ccccc6)c(C(F)(F)F)c5)nn4)CC3)c3ccccc23)c1 [B2R092-01] and report it.
−1.3
